Target: GDP-bound KRAS wild-type protein (Homo sapiens, UniProt P01116)
Sequence (P01116 whole entry): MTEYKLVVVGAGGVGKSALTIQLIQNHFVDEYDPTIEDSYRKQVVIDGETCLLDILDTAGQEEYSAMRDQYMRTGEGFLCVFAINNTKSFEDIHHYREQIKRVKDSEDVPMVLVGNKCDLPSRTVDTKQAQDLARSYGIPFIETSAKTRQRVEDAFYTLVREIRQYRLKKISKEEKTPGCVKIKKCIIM
Test: Binding to KRAS by surface plasmon resonance (SPR), Single Cycle Kinetics
Conditions: SPR Single Cycle Kinetics, GDP-bound KRAS wild-type protein, 1:1 binding model; read-out: KRAS KD
Where a SMILES comes first, the peptide text is derived from it. Bridges are numbered along the chain shown (N, C = ends). [ ]: non-standard residue; d: D form. The star is where a group is joined. hPhe(3-Cl-4-CF3) = N[C@@H](CCc1ccc(C(F)(F)F)c(Cl)c1)C(=O)O; NPrPhe(4-CF3) = CCCN[C@@H](Cc1ccc(C(F)(F)F)cc1)C(=O)O; NMeGly(cPent) = CN[C@H](C(=O)O)C1CCCC1; NMeD = CN[C@@H](CC(=O)O)C(=O)O; NMeL = CN[C@@H](CC(C)C)C(=O)O; NMeA = CN[C@@H](C)C(=O)O; Pyrrolidide = C1CCN(*)C1; Ac5c = NC1(C(=O)O)CCCC1; Aze = O=C(O)[C@@H]1CCN1; Sar = CNCC(=O)O
observable: Kd (pM)
Provide the reading as a plain figure in pM.

// query Which value of Kd has been reported for CCCN1C(=O)[C@@H]2CCN2C(=O)[C@H](C)N(C)C(=O)[C@H]([C@@H](C)CC)NC(=O)[C@H](CC(C)C)N(C)C(=O)C[C@@H](C(=O)N2CCCC2)N(C)C(=O)[C@H](C2CCCC2)N(C)C(=O)C2(CCCC2)NC(=O)[C@@H]2CCCN2C(=O)[C@H](CCc2ccc(C(F)(F)F)c(Cl)c2)NC(=O)CN(C)C(=O)[C@@H]1Cc1ccc(C(F)(F)F)cc1 [PP0179] ([NMeL]I[NMeA][Aze][NPrPhe(4-CF3)][Sar][hPhe(3-Cl-4-CF3)]P[Ac5c][NMeGly(cPent)][NMeD]-Pyrrolidide; lactam N-11) in the records?
// result 110

---

Target: GDP-bound KRAS wild-type protein (Homo sapiens)
Experiment: Binding to KRAS by surface plasmon resonance (SPR), Single Cycle Kinetics
Details: SPR Single Cycle Kinetics, GDP-bound KRAS wild-type protein, 1:1 binding model; read-out: KRAS KD
Where a SMILES comes first, the peptide text is derived from it. Bridges are numbered along the chain shown (N, C = ends). [ ]: non-standard residue; d: D form. The star is where a group is joined. hPhe(3-Cl-4-CF3) = N[C@@H](CCc1ccc(C(F)(F)F)c(Cl)c1)C(=O)O; NPrPhe(4-CF3) = CCCN[C@@H](Cc1ccc(C(F)(F)F)cc1)C(=O)O; NEtPhe(4-CF3) = CCN[C@@H](Cc1ccc(C(F)(F)F)cc1)C(=O)O; NMeGly(cPent) = CN[C@H](C(=O)O)C1CCCC1; Pro(4,4-F2) = O=C(O)[C@@H]1CC(F)(F)CN1; NMeD = CN[C@@H](CC(=O)O)C(=O)O; NMeL = CN[C@@H](CC(C)C)C(=O)O; Morpholide = C1CN(*)CCO1; NMeA = CN[C@@H](C)C(=O)O; Ac5c = NC1(C(=O)O)CCCC1; Aze = O=C(O)[C@@H]1CCN1; Aib = CC(C)(N)C(=O)O; Sar = CNCC(=O)O
observable: pKd
Here pKd is given on a logarithmic scale as minus log10 of the concentration in mol/L.

compound: CCCN1C(=O)CN(C)C(=O)[C@@H]2CCN2C(=O)[C@H]([C@@H](C)CC)NC(=O)[C@H](CC(C)C)N(C)C(=O)C[C@@H](C(=O)N(C)C)NC(=O)[C@H](C2CCCC2)N(C)C(=O)C2(CCCC2)NC(=O)[C@@H]2CC(F)(F)CN2C(=O)[C@H](CCc2ccc(C(F)(F)F)c(Cl)c2)NC(=O)CN(C)C(=O)[C@@H]1Cc1ccc(C(F)(F)F)cc1 [PP0375] ([NMeL]I[Aze][Sar][NPrPhe(4-CF3)][Sar][hPhe(3-Cl-4-CF3)][Pro(4,4-F2)][Ac5c][NMeGly(cPent)]D-NMe2; lactam N-11)
data-value: 8.64

// query Which value of pKd has been reported for CC[C@H](C)[C@@H]1NC(=O)[C@H](CC(C)C)N(C)C(=O)C[C@@H](C(=O)N2CCOCC2)N(C)C(=O)[C@H](C2CCCC2)N(C)C(=O)C(C)(C)NC(=O)[C@@H]2CCCN2C(=O)[C@H](CCc2ccc(C(F)(F)F)c(Cl)c2)NC(=O)CN(C)C(=O)[C@H](Cc2ccc(C(F)(F)F)cc2)N(CC)C(=O)[C@@H]2CCN2C(=O)[C@H](C)N(C)C1=O [PP0221] ([NMeL]I[NMeA][Aze][NEtPhe(4-CF3)][Sar][hPhe(3-Cl-4-CF3)]P[Aib][NMeGly(cPent)][NMeD]-Morpholide; lactam N-11) in the records?
// result 9.72
